biological target: Gonadotropin-releasing hormone receptor (Homo sapiens); experiment: Antagonism of human GnHR receptor, determined in a reporter gene assay in HEK293 cells; format: functional, cell-based
Sequence (P30968 whole entry): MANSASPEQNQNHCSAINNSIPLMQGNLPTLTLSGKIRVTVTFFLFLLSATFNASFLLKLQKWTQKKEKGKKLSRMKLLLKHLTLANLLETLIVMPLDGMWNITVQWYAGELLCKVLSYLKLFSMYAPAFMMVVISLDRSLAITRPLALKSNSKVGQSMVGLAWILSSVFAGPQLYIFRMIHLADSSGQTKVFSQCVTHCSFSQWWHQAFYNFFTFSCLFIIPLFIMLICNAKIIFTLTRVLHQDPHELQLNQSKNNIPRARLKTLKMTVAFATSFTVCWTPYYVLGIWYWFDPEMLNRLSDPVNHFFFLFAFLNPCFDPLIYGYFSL

>  <smiles>
CCNC(=O)[C@@H]1CCCN1C(=O)[C@H](CCCCNC(C)C)NC(=O)[C@H](CC(C)C)NC(=O)[C@@H](Cc1ccc(CNC(N)=O)cc1)NC(=O)[C@H](Cc1ccc(NC(=O)[C@@H]2CC(=O)NC(=O)N2)cc1)NC(=O)[C@H](CO)NC(=O)[C@@H](Cc1cccnc1)NC(=O)[C@@H](Cc1ccc(Cl)cc1)NC(=O)[C@@H](Cc1ccc2ccccc2c1)NC(C)=O

>  <target or test system>
Gonadotropin-releasing hormone receptor (Homo sapiens)

>  <IC50 [nM]>
8.8

$$$$
>  <smiles>
CC(=O)Nc1ccc(C[C@@H](NC(=O)[C@H](Cc2ccc(NC(=O)[C@@H]3CNC(=O)N3)cc2)NC(=O)[C@H](CO)NC(=O)[C@@H](Cc2cccnc2)NC(=O)[C@@H](Cc2ccc(Cl)cc2)NC(=O)[C@@H](Cc2ccc3ccccc3c2)NC(C)=O)C(=O)N[C@@H](CC(C)C)C(=O)N[C@@H](CCCCNC(C)C)C(=O)N2CCC[C@H]2C(=O)N[C@H](C)C(N)=O)cc1

>  <target or test system>
Gonadotropin-releasing hormone receptor (Homo sapiens)

>  <IC50 [nM]>
9.1

$$$$
>  <smiles>
CC(=O)Nc1ccc(C[C@@H](NC(=O)[C@H](Cc2ccc(NC(=O)[C@@H]3CC(=O)NC(=O)N3)cc2)NC(=O)[C@H](CO)NC(=O)[C@@H](Cc2cccnc2)NC(=O)[C@@H](Cc2ccc(Cl)cc2)NC(=O)[C@@H](Cc2ccc3ccccc3c2)NC(C)=O)C(=O)N[C@@H](CC(C)C)C(=O)N[C@@H](CCCCNC(C)C)C(=O)N2CCC[C@H]2C(=O)N[C@H](C)C(N)=O)cc1

>  <target or test system>
Gonadotropin-releasing hormone receptor (Homo sapiens)

>  <IC50 [nM]>
4.3

$$$$

* * *

Recorded HR by entry
species on record: Rattus norvegicus; assay: Compound was tested for histamine release at a concentration of 100 ug/mL; format: functional
*1 amine or outer side, *2 acyl side, *3 side chain or, on linkers, in order; H or OH if unused. Where a SMILES comes first, the peptide text is derived from it. [ ]: non-standard residue; d: D form. Phe(4-NH(5-NH2triazol-3-yl)) = Nc1nc(Nc2ccc(C[C@H](N)C(=O)O)cc2)n[nH]1; X1 = Nc1nc(Nc2ccc(C[C@@H](N[*:1])C(=O)[*:2])cc2)n[nH]1; dPhe(4-NHCONH2) = NC(=O)Nc1ccc(C[C@@H](N)C(=O)O)cc1; Phe(4-NHCONH2) = NC(=O)Nc1ccc(C[C@H](N)C(=O)O)cc1; dPhe(4-Cl) = N[C@H](Cc1ccc(Cl)cc1)C(=O)O; d2Nal = N[C@H](Cc1ccc2ccccc2c1)C(=O)O; Lys(iPr) = CC(C)NCCCC[C@H](N)C(=O)O; d3Pal = N[C@H](Cc1cccnc1)C(=O)O

>  <molecule>
CC(=O)N[C@H](Cc1ccc2ccccc2c1)C(=O)N[C@H](Cc1ccc(Cl)cc1)C(=O)N[C@H](Cc1cccnc1)C(=O)N[C@@H](CO)C(=O)N[C@@H](Cc1ccc(Nc2n[nH]c(N)n2)cc1)C(=O)N[C@H](Cc1ccc(Nc2n[nH]c(N)n2)cc1)C(=O)N[C@@H](CC(C)C)C(=O)N[C@@H](CCCCNC(C)C)C(=O)N1CCC[C@H]1C(=O)N[C@H](C)C(N)=O.CC(=O)O [PRAZARELIX ACETATE] (Ac-[d2Nal][dPhe(4-Cl)][d3Pal]S[Phe(4-NH(5-NH2triazol-3-yl))][X1]L[Lys(iPr)]P[dA]-NH2)

>  <HR>
93%

$$$$
>  <molecule>
CNC(=O)NCc1ccc(C[C@@H](NC(=O)[C@H](Cc2ccc(NC(=O)[C@@H]3CC(=O)NC(=O)N3)cc2)NC(=O)[C@H](CO)NC(=O)[C@@H](Cc2cccnc2)NC(=O)[C@@H](Cc2ccc(Cl)cc2)NC(=O)[C@@H](Cc2ccc3ccccc3c2)NC(C)=O)C(=O)N[C@@H](CC(C)C)C(=O)N[C@@H](CCCCNC(C)C)C(=O)N2CCC[C@H]2C(=O)N[C@H](C)C(N)=O)cc1

>  <HR>
56%

$$$$
>  <molecule>
CC(=O)N[C@H](Cc1ccc2ccccc2c1)C(=O)N[C@H](Cc1ccc(Cl)cc1)C(=O)N[C@H](Cc1cccnc1)C(=O)N[C@@H](CO)C(=O)N[C@@H](Cc1ccc(NC(N)=O)cc1)C(=O)N[C@H](Cc1ccc(NC(N)=O)cc1)C(=O)N[C@@H](CC(C)C)C(=O)N[C@@H](CCCCNC(C)C)C(=O)N1CCC[C@H]1C(=O)N[C@H](C)C(N)=O (Ac-[d2Nal][dPhe(4-Cl)][d3Pal]S[Phe(4-NHCONH2)][dPhe(4-NHCONH2)]L[Lys(iPr)]P[dA]-NH2)

>  <HR>
153%

$$$$
>  <molecule>
CC(=O)Nc1ccc(C[C@H](NC(=O)[C@H](CO)NC(=O)[C@@H](Cc2cccnc2)NC(=O)[C@@H](Cc2ccc(Cl)cc2)NC(=O)[C@@H](Cc2ccc3ccccc3c2)NC(C)=O)C(=O)N[C@H](Cc2ccc(NC(C)=O)cc2)C(=O)N[C@@H](CC(C)C)C(=O)N[C@@H](CCCCNC(C)C)C(=O)N2CCC[C@H]2C(=O)N[C@H](C)C(N)=O)cc1

>  <HR>
56%

$$$$
>  <molecule>
CC(=O)N[C@H](Cc1ccc2ccccc2c1)C(=O)N[C@H](Cc1ccc(Cl)cc1)C(=O)N[C@H](Cc1cccnc1)C(=O)N[C@@H](CO)C(=O)N[C@@H](Cc1ccc(NC(=O)[C@H]2CC(=O)NC(=O)N2)cc1)C(=O)N[C@H](Cc1ccc(NC(=O)[C@H]2CC(=O)NC(=O)N2)cc1)C(=O)N[C@@H](CC(C)C)C(=O)N[C@@H](CCCCNC(C)C)C(=O)N1CCC[C@H]1C(=O)N[C@H](C)C(N)=O

>  <HR>
69%

$$$$
